target: ΔF508-CFTR (Homo sapiens, UniProt P13569, DEL508-508); construct: expressed in transfected cells; experiment: Membrane potential optical assay (FRET voltage-sensor dyes, VIPR), identification of potentiator compounds; type: cell-based; details: Table 3; assay not given; read-out: % Activity (% Efficacy, relative efficacy)
Sequence (P13569 with tags, fused parts or gaps DEL508-508): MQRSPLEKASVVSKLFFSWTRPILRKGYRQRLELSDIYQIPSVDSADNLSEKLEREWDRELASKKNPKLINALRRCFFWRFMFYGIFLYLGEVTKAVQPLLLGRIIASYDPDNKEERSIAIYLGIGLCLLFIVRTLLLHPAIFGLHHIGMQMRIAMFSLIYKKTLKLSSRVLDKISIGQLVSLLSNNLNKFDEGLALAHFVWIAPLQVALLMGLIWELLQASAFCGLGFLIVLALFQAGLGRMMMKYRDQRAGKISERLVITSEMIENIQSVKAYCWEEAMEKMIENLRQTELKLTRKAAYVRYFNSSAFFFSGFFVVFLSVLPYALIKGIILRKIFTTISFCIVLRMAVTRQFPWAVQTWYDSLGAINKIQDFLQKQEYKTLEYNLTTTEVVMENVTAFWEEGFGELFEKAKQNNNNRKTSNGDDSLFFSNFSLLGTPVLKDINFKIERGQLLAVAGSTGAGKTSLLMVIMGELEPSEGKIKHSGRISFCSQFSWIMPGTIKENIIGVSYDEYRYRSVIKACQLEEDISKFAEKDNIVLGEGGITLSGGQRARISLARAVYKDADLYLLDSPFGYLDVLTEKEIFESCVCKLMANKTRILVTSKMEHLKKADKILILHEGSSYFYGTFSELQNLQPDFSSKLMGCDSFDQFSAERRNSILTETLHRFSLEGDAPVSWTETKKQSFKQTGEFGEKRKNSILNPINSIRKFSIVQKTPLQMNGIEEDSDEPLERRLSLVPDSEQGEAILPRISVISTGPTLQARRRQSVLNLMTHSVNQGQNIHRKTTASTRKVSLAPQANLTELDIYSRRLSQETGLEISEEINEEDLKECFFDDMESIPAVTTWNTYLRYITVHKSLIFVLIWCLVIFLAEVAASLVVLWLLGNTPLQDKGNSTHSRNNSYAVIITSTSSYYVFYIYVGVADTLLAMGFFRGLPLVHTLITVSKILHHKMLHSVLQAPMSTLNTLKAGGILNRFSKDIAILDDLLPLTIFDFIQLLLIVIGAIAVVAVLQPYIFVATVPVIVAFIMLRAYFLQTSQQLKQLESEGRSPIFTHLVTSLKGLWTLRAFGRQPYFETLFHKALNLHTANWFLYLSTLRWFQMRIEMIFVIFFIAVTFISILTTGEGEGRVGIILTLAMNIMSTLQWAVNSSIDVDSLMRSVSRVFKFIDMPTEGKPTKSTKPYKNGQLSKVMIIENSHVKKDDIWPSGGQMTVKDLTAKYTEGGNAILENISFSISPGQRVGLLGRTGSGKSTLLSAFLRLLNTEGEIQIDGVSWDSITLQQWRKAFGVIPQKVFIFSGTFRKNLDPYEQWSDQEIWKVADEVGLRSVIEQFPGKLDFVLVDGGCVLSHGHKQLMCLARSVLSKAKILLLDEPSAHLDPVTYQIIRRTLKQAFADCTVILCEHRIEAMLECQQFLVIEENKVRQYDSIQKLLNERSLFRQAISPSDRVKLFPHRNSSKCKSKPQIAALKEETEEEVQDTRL
Emax by entry:

Consider the reported Emax for these compounds:
Recorded Emax for O=C(Nc1cc(NS(=O)(=O)CCN2CCOCC2)cc(C(F)(F)F)c1)c1c[nH]c2ccccc2c1=O on ΔF508-CFTR (Homo sapiens, UniProt P13569, DEL508-508) was 25 to 100%

Recorded Emax for COc1ccc(-c2ccccc2NC(=O)c2c[nH]c3ccccc3c2=O)cc1 on ΔF508-CFTR (Homo sapiens, UniProt P13569, DEL508-508) was > 100%

Recorded Emax for O=C(Nc1ccc(Cl)nc1)c1c[nH]c2ccccc2c1=O on ΔF508-CFTR (Homo sapiens, UniProt P13569, DEL508-508) was < 25%

Recorded Emax for CC(C)(C)c1cc(C(F)(F)F)c(NC(=O)c2c[nH]c3ccc(F)cc3c2=O)cc1O on ΔF508-CFTR (Homo sapiens, UniProt P13569, DEL508-508) was 25 to 100%

Further cases:
Recorded Emax for COC(=O)c1cccc(-c2ccccc2NC(=O)c2c[nH]c3ccccc3c2=O)c1 on ΔF508-CFTR (Homo sapiens, UniProt P13569, DEL508-508) was 25 to 100%

Recorded Emax for O=C(Nc1ccc2cc[nH]c2c1)c1cnc2ccc(F)cc2c1O on ΔF508-CFTR (Homo sapiens, UniProt P13569, DEL508-508) was 25 to 100%

Recorded Emax for CC(C)(C)OC(=O)[C@@H]1CCCN1c1ccc(NC(=O)c2c[nH]c3ccccc3c2=O)c(C(F)(F)F)c1 on ΔF508-CFTR (Homo sapiens, UniProt P13569, DEL508-508) was 25 to 100%

Recorded Emax for CC(C)(C)c1cc(C(C)(C)C)c(NC(=O)c2c[nH]c3cc(OC(F)(F)F)ccc3c2=O)cc1O on ΔF508-CFTR (Homo sapiens, UniProt P13569, DEL508-508) was 25 to 100%

###

Emax by entry:
target: ΔF508-CFTR (Homo sapiens, UniProt P13569, DEL508-508); construct: expressed in transfected cells; test: Membrane potential optical assay (FRET voltage-sensor dyes, VIPR), identification of potentiator compounds; type: cell-based; conditions: Table 3; assay not given; read-out: % Activity (% Efficacy, relative efficacy)

Emax in this record for O=C(Nc1ccccc1-c1ccc2c(c1)OCO2)c1c[nH]c2ccccc2c1=O [Compound 135] : > 100%

Emax in this record for COc1nc2ccccc2c(OC)c1C(=O)Nc1cc(NC(=O)OC(C)(C)C)ccc1C(C)(C)C [Compound 39] : 25 to 100%

Emax in this record for CC(C)(C)c1cc(F)c(NC(=O)c2c[nH]c3cc(F)c(F)cc3c2=O)cc1O [Compound 486] : 25 to 100%

Further cases:
Emax in this record for Nc1cc(Cl)cc(NC(=O)c2c[nH]c3ccccc3c2=O)c1 [Compound 131] : 25 to 100%

Emax in this record for CCOc1cccc(-c2cc(C(C)(C)C)c(O)cc2NC(=O)c2c[nH]c3ccccc3c2=O)c1 [Compound 43] : 25 to 100%

Emax in this record for CC(=O)Nc1ccc(C(C)C)c(NC(=O)c2c[nH]c3ccccc3c2=O)c1 [Compound 243] : 25 to 100%

Emax in this record for Cc1csc(-c2ccccc2NC(=O)c2c[nH]c3ccccc3c2=O)c1 [Compound 151] : 25 to 100%

Emax in this record for Cc1cccc2c(=O)c(C(=O)Nc3cc(O)c(C(C)(C)C)cc3C(C)(C)C)c[nH]c12 [Compound 621] : < 25%
